src = paper PMC9505425

Provide the reported viability at 48 h, 7.5 µM of each item.
assay-summary: MTT cytotoxicity assay, HF-P4
Format: cell-based, human
assay-conditions: human, HF-P4 normal human dermal fibroblasts, HF-P4, 7.5 uM, repeats, read-out: Cell viability %
Entry rule: numbers only, all in %.

Challenge: Need viability at 48 h, 7.5 µM of Cc1ccc(-n2c(-c3ccc(C(=O)N/N=C/c4ccccc4O)cc3)cc3c2cc(-c2ccc(C(=O)N/N=C/c4ccccc4O)cc2)n3-c2ccc(C)cc2)cc1 , thanks.
Response given: 62.3

Challenge: I have this molecule here, Cc1ccc(-n2c(-c3ccc(C(=O)NN)cc3)cc3c2cc(-c2ccc(C(=O)NN)cc2)n3-c2ccc(C)cc2)cc1 , and I need its recorded viability at 48 h, 7.5 µM.
Response given: 77.3

Challenge: Consider the molecule shown here: CCN(CC)c1ccc(/C=N/NC(=O)c2ccc(-c3cc4c(cc(-c5ccc(C(=O)N/N=C/c6ccc(N(CC)CC)cc6O)cc5)n4-c4ccc(C)cc4)n3-c3ccc(C)cc3)cc2)c(O)c1 What is its recorded viability at 48 h, 7.5 µM?
Response given: 84.4

Challenge: Form field: reported viability at 48 h, 7.5 µM of COc1cccc(/C=N/NC(=O)c2ccc(-c3cc4c(cc(-c5ccc(C(=O)N/N=C/c6cccc(OC)c6O)cc5)n4-c4ccc(C)cc4)n3-c3ccc(C)cc3)cc2)c1O
Response given: 74.5

Challenge: For the molecule shown here, Cc1ccc(-n2c(-c3ccc(C(=O)N/N=C/c4cc(F)ccc4O)cc3)cc3c2cc(-c2ccc(C(=O)N/N=C/c4cc(F)ccc4O)cc2)n3-c2ccc(C)cc2)cc1 , give the reported viability at 48 h, 7.5 µM.
Response given: 78.7

Challenge: What value of viability at 48 h, 7.5 µM has been recorded for this entry: Cc1ccc(-n2c(-c3ccc(C(=O)N/N=C/c4ccc(O)cc4O)cc3)cc3c2cc(-c2ccc(C(=O)N/N=C/c4ccc(O)cc4O)cc2)n3-c2ccc(C)cc2)cc1
Response given: 66.9
